# subject_of_test: PLK1 (Homo sapiens)
# Sequence (P53350 whole entry): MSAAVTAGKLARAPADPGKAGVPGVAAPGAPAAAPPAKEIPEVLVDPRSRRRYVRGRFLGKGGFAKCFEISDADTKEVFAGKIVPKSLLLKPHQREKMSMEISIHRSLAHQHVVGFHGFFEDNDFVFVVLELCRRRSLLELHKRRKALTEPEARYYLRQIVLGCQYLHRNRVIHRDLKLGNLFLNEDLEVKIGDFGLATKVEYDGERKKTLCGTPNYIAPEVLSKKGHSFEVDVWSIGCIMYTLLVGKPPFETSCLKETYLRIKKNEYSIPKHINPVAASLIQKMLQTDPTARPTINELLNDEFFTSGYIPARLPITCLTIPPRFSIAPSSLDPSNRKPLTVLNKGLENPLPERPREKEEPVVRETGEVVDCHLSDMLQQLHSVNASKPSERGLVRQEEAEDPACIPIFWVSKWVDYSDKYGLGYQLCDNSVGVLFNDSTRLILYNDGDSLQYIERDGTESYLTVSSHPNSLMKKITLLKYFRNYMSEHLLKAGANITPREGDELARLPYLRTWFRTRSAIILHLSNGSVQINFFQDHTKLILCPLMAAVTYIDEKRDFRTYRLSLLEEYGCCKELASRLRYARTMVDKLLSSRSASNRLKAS
# test_details: PLK1 protein kinase assay (CDC25C phosphorylation, [γ-32P]-ATP)
# Assay type: biochemical
# cond: Table 2, PLK1 IC50; class symbols; read-out: PLK1 IC50
pIC50: −log10 of the molar value.
readout_kind: pIC50

>>> print(df.to_string())
                              record_smiles  readout_kind  experimental_value
0  COc1cc(C(=O)NCc2cccn2C)ccc1Nc1ncc2c(n1)N(C1CCCC1)CC1(CC1)C(=O)N2C         pIC50              > 7.00
1  Cc1ccc(N2CCC(=O)N(C)c3cnc(Nc4ccc(NC(=O)C5CC5)c(C)c4)nc32)cc1         pIC50              > 5.00
2  CN1CCC(NC(=O)c2cccc(Nc3ncc4c(n3)N(C3CCCC3)CCC(=O)N4C)c2)CC1         pIC50              > 5.00
3  COc1cc(C(=O)O)ccc1Nc1ncc2c(n1)N(CC1CC1)CC(C)(C)C(=O)N2C         pIC50              > 6.00

* * *

# subject_of_test: PLK1 (Homo sapiens)
# test_details: PLK1 protein kinase assay (CDC25C phosphorylation, [γ-32P]-ATP)
# Type: biochemical
# cond: Table 2, PLK1 IC50; class symbols; read-out: PLK1 IC50
pIC50: −log10 of the molar value.
molecules and their reported pIC50
readout_kind: pIC50

In [3]: df
Out[3]:
                                    molecule      subject_of_test  experimental_value
 0  COc1cc(C(=O)NN2CCN(C)CC2)ccc1Nc1ncc2c(n1)N(C1CCCC1)CC1(CCC1)C(=O)N2C  PLK1 (Homo sapiens)              > 7.00
 1  COc1cc(C(=O)NC2CCN(C)CC2)ccc1Nc1ncc2c(n1)N(C(C)C)CC1(CC1)C(=O)N2C  PLK1 (Homo sapiens)              > 7.00
 2  COc1cc(C(=O)N(C)C)ccc1Nc1ncc2c(n1)N(C1CCCC1)CCC(=O)N2C  PLK1 (Homo sapiens)              > 6.00
 3  COc1cc(C(=O)NC(C)(C)CN2CCCC2)ccc1Nc1ncc2c(n1)N(C1CCCC1)CC1(CC1)C(=O)N2C  PLK1 (Homo sapiens)              > 6.00
 4  CCN(CC)CCNC(=O)c1ccc(Nc2ncc3c(n2)N(C2CCCC2)CC2(CCC2)C(=O)N3C)c(OC)c1  PLK1 (Homo sapiens)              > 7.00
 5  CC1CN(C2CCCC2)c2nc(Nc3ccc4c(c3)CS(=O)(=O)C4)ncc2N(C)C1=O (stereo not drawn)  PLK1 (Homo sapiens)              > 6.00
 6  CN1C(=O)CCN(C2CCCC2)c2nc(Nc3cccc(C(=O)O)c3)ncc21  PLK1 (Homo sapiens)              > 6.00
 7  COc1cc(C(=O)NCC(C)(C)CN(C)C)ccc1Nc1ncc2c(n1)N(C1CCCC1)CC1(CC1)C(=O)N2C  PLK1 (Homo sapiens)              > 7.00
 8  COc1cc(C(=O)NC2CN3CCC2CC3)ccc1Nc1ncc2c(n1)N(CC1CC1)CCC(=O)N2C (stereo not drawn)  PLK1 (Homo sapiens)              > 6.00
 9  COc1cc(C(=O)NC2CCCC2)ccc1Nc1ncc2c(n1)N(C1CCCC1)CCC(=O)N2C  PLK1 (Homo sapiens)              > 7.00
10  COc1cc(C(=O)NC2CCN(Cc3ccccc3)CC2)ccc1Nc1ncc2c(n1)N(CC(C)C)CCC(=O)N2C  PLK1 (Homo sapiens)              > 6.00
11  COc1cc(C(=O)NC2CCN(C)CC2)ccc1Nc1ncc2c(n1)N(CCO)CCC(=O)N2C  PLK1 (Homo sapiens)              > 6.00
12  COc1cc(C(=O)NN2CCN(C)CC2)ccc1Nc1ncc2c(n1)N(C1CCCC1)CC1(CC1)C(=O)N2C  PLK1 (Homo sapiens)              > 7.00
13  CN1C(=O)CCN(C2CCCC2)c2nc(Nc3cccc(CN4CCS(=O)(=O)CC4)c3)ncc21  PLK1 (Homo sapiens)              > 6.00
14  COc1ccc(CNc2ncc3c(n2)N(C2CCCC2)CCC(=O)N3C)cc1  PLK1 (Homo sapiens)              > 5.00

* * *

# subject_of_test: PLK1 (Homo sapiens)
# test_details: PLK1 protein kinase assay (CDC25C phosphorylation, [γ-32P]-ATP)
# Type: biochemical
# cond: Table 2, PLK1 IC50; class symbols; read-out: PLK1 IC50
pIC50: −log10 of the molar value.
Some molecules, each annotated with its measured pIC50.
readout_kind: pIC50

>>> df
                                   molecule  readout_kind  experimental_value
0  CCOC(=O)CN1CCC(NC(=O)c2ccc(Nc3ncc4c(n3)N(C3CCCC3)CCC(=O)N4C)c(OC)c2)CC1 [compound 211]         pIC50              > 6.00
1  COc1cc(C(=O)NC2CCN(C)CC2)ccc1Nc1ncc2c(n1)N(CC1CC1)CC(C)(C)C(=O)N2C [compound 276]         pIC50              > 6.00
2  CN1C(=O)C2(CC2)CN(C2CCCC2)c2nc(Nc3ccc(C(=O)O)cc3F)ncc21 [compound 283]         pIC50              > 7.00
3  COc1ccc(C(=O)NCCN2CCOCC2)cc1Nc1ncc2c(n1)N(C1CCCC1)CCC(=O)N2C [compound 266]         pIC50              > 6.00
4  CN1C(=O)CCN(C2CCCC2)c2nc(Nc3cccc(S(=O)(=O)NCc4ccccc4)c3)ncc21 [compound 110]         pIC50              > 5.00
5  CC(=O)Nc1ccc(Nc2ncc3c(n2)N(C2CCCC2)CCC(=O)N3C)cc1 [compound 171]         pIC50              > 5.00
6  COc1cc(C(=O)NC(C)(C)CN2CCCCC2)ccc1Nc1ncc2c(n1)N(C1CCCC1)CCC(=O)N2C [compound 156]         pIC50              > 7.00
7  C=CCN1CCC(=O)N(C)c2cnc(Nc3ccc4c(c3)CS(=O)(=O)C4)nc21 [compound 119]         pIC50              > 5.00

* * *

# subject_of_test: UniProtKB O14965
# Sequence (O14965 whole entry): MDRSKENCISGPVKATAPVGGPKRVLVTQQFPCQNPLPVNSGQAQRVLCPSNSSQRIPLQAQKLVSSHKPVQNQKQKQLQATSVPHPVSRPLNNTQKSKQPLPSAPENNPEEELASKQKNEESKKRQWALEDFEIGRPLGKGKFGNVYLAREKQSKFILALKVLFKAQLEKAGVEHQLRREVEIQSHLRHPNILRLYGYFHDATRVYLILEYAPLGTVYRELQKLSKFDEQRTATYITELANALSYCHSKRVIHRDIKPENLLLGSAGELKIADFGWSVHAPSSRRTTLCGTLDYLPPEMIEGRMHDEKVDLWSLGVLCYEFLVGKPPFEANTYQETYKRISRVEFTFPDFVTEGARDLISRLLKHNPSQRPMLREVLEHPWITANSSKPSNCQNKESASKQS
# test_details: AA IC50 (Table 1; no method given)
# Format: biochemical
# cond: Table 2, AurA IC50; class symbols; read-out: AurA IC50
// values below are reported IC50
readout_kind: IC50

                                   compound  experimental_value
0  CN1C(=O)CCN(C2CCCC2)c2nc(Nc3ccc(C(=O)O)cc3)ncc21            < 100 nM
1  CC(C)C1CC(=O)N(C)c2cnc(Nc3ccc4c(c3)CS(=O)(=O)C4)nc2N1C1CCCC1 (centres unmarked)           < 1000 nM
2  CN1C(=O)CCN(C2CCCC2)c2nc(Nc3cccc(C(=O)O)c3)ncc21           < 1000 nM
3  COc1cc(C(=O)NC2CCN(C)CC2)ccc1Nc1ncc2c(n1)N(Cc1ccc(OC)c(OC)c1)CC(C)C(=O)N2C (centres unmarked)          < 10000 nM
4  CN1C(=O)CCN(c2c(F)cccc2F)c2nc(Nc3ccc4c(c3)CS(=O)(=O)C4)ncc21            < 100 nM
5  CN1C(=O)CCN(C2CCCC2)c2nc(Nc3ccc4c(c3)NC(=O)CO4)ncc21 [compound 299]            < 100 nM
6  CN1C(=O)CCN(c2ccc(N3CCOCC3)cc2)c2nc(Nc3ccc4c(c3)CS(=O)(=O)C4)ncc21            < 100 nM
7  CN1C(=O)CCN(C2CCCC2)c2nc(Nc3ccc(Cl)cc3)ncc21           < 1000 nM

* * *

# subject_of_test: PLK1 (Homo sapiens)
# test_details: PLK1 protein kinase assay (CDC25C phosphorylation, [γ-32P]-ATP)
# Format: biochemical
# cond: Table 2, PLK1 IC50; class symbols; read-out: PLK1 IC50
pIC50: −log10 of the molar value.
readout_kind: pIC50

In [3]: df
Out[3]:
                                   molecule  readout_kind  experimental_value
0  COc1cc(C(=O)Nc2ccccc2)ccc1Nc1ncc2c(n1)N(C1CCCC1)CCC(=O)N2C         pIC50              > 5.00
1  CN1C(=O)CCN(C2CCCC2)c2nc(Nc3ccc(C(=O)N4CCOCC4)cc3)ncc21 [compound 293]         pIC50              > 5.00
2  CCC1CN(C2CCCC2)c2nc(Nc3ccc4c(c3)CS(=O)(=O)C4)ncc2N(C)C1=O (centres unmarked)         pIC50              > 6.00
3  COc1cc(C(=O)NC2CN3CCC2CC3)ccc1Nc1ncc2c(n1)N(C1CCCC1)CC1(CCC1)C(=O)N2C (racemic)         pIC50              > 7.00
4  CN1C(=O)CCN(C2CCCC2)c2nc(Nc3ccc4sc(C(=O)O)cc4c3)ncc21 [compound 292]         pIC50              > 6.00
5  CN1CCC(NC(=O)c2ccc(Nc3ncc4c(n3)N(C3CCCC3)CC3(CC3)C(=O)N4C)c(O)c2)CC1         pIC50              > 6.00
6  COc1cccc(Nc2ncc3c(n2)N(C2CCCC2)CCC(=O)N3C)c1         pIC50              > 5.00
7  COc1cc(C(=O)NC2CCN(C)CC2)ccc1Nc1ncc2c(n1)N(c1ccccc1C)CCC(=O)N2C         pIC50              > 5.00
